Where do the numbers come from? From patent US20250051347A1.

target: androgen receptor (AR) splicing variant AR-v7 (Homo sapiens); construct: The degradation activity of compounds on AR-v7 in 22RV1 cells; host or cells: 22RV1 cells; assay: Degradation activity on androgen receptor splicing variant AR-v7 in 22RV1 cells (ELISA); assay type: cell-based; details: AR-v7 degradation in 22RV1 cells, 48 h, class symbols
Sequence (P10275 1-644 isoform P10275-3): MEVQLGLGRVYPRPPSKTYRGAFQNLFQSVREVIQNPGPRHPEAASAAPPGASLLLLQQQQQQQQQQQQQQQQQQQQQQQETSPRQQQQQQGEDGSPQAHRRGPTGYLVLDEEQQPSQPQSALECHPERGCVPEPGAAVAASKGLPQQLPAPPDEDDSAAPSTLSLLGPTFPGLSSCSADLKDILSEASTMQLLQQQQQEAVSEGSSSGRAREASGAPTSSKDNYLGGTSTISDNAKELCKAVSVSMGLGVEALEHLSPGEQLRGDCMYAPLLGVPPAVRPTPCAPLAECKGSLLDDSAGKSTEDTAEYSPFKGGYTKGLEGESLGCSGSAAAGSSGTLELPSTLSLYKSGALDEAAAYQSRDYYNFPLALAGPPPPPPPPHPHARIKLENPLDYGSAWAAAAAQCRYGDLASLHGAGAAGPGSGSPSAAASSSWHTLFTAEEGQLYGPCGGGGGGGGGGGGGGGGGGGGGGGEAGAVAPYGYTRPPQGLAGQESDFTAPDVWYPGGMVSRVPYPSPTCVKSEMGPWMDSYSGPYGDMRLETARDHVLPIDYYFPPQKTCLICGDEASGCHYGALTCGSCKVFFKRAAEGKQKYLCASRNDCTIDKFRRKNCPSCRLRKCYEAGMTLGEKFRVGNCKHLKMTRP
DC50 for assorted molecules

Recorded results for 2 molecules are shown here.
| molecule | DC50 |
| --- | --- |
| CC(C)(c1ccc(Oc2cnc(-n3nccn3)nc2)cc1)c1ccc(O[C@H]2C[C@H](Nc3ccc4c(c3)C(=O)N(C3CCC(=O)NC3=O)C4=O)C2)cc1 (stereo partly shown) | < 10 nM |
| CC(C)(c1ccc(OCc2ccnc(-c3nnco3)n2)cc1)c1ccc(O[C@H]2C[C@H](Nc3ccc4c(c3)C(=O)N(C3CCC(=O)NC3=O)C4=O)C2)cc1 (stereo partly shown) | < 10 nM |

GET DC50 where system = androgen receptor (AR) splicing variant AR-v7 (Homo sapiens) and item = CC(O)c1ncc(Oc2ccc(C3(c4ccc(O[C@H]5C[C@H](Nc6ccc7c(c6)C(=O)N(C6CCC(=O)NC6=O)C7=O)C5)cc4)CC3)cc2)cn1 (stereo partly shown) < 10 nM

GET DC50 where system = androgen receptor (AR) splicing variant AR-v7 (Homo sapiens) and item = CC(=O)c1nccc(COc2ccc(C(C)(C)c3ccc(OC[C@H]4CCCN4c4ccc5c(c4)C(=O)N(C4CCC(=O)NC4=O)C5=O)cc3)cc2)n1 (stereo partly shown) 1000 to 5000 nM

GET DC50 where system = androgen receptor (AR) splicing variant AR-v7 (Homo sapiens) and item = CC(C)(c1ccc(OCCCNc2cccc3c2C(=O)N(C2CCC(=O)NC2=O)C3=O)cc1)c1ccc(OCc2cnc(N3CCOCC3)s2)cc1 (stereo not shown) 1000 to 5000 nM

GET DC50 where system = androgen receptor (AR) splicing variant AR-v7 (Homo sapiens) and item = CC(C)(c1ccc(OCCCCCCCOCCCOCCCNc2ccc3c(c2)C(=O)N(C2CCC(=O)NC2=O)C3=O)cc1)c1ccc(OCc2ccnc(N3CC4(COC4)C3)n2)cc1 (stereo not shown) 1000 to 5000 nM

GET DC50 where system = androgen receptor (AR) splicing variant AR-v7 (Homo sapiens) and item = CS(=O)(=O)Nc1cc(COc2ccc(C3(c4ccc(OCCCCCCCCOCCCCNc5ccc6c(c5)C(=O)N(C5CCC(=O)NC5=O)C6=O)cc4)CCC3)cc2)ccn1 (stereo not shown) 1000 to 5000 nM

GET DC50 where system = androgen receptor (AR) splicing variant AR-v7 (Homo sapiens) and item = Cc1nc(-c2ncc(Oc3ccc(C(C)(C)c4ccc(OC5CC(Nc6ccc7c(c6)CN([C@H]6CCC(=O)NC6=O)C7=O)C5)cc4)cc3)cn2)no1 (stereo partly shown) < 10 nM

GET DC50 where system = androgen receptor (AR) splicing variant AR-v7 (Homo sapiens) and item = CC(C)(c1ccc(OCCCNc2ccc3c(c2)C(=O)N(C2CCC(=O)NC2=O)C3=O)cc1)c1ccc(OCc2ccnc(-n3ccnn3)n2)cc1 (stereo not shown) 11 to 100 nM

GET DC50 where system = androgen receptor (AR) splicing variant AR-v7 (Homo sapiens) and item = CCS(=O)(=O)Nc1nccc(COc2ccc(C(C)(C)c3ccc(OCCCCCCCCOCCCCNc4ccc5c(c4)C(=O)N(C4CCC(=O)NC4=O)C5=O)cc3)cc2)n1 (stereo not shown) 101 to 1000 nM

GET DC50 where system = androgen receptor (AR) splicing variant AR-v7 (Homo sapiens) and item = Cc1nnc(-c2cnnc(Oc3ccc(C(C)(C)c4ccc(O[C@H]5C[C@H](Nc6ccc7c(c6)C(=O)N(C6CCC(=O)NC6=O)C7=O)C5)cc4)cc3)c2)o1 (stereo partly shown) < 10 nM

GET DC50 where system = androgen receptor (AR) splicing variant AR-v7 (Homo sapiens) and item = CC(C)(c1ccc(OCCCCCCCCOCCCCNc2ccc3c(c2)C(=O)N(C2CCC(=O)NC2=O)C3=O)cc1)c1ccc(OCc2ccnc(NS(=O)(=O)C3CC3)n2)cc1 (stereo not shown) 101 to 1000 nM
